- subjectOfTest: T1, recombinant human TIGIT (human, UniProt Q495A1 22-141, limits assumed)
- T1 construct: recombinant human TIGIT used in Carterra SPR; also called hTIGIT
- T1 sequence (looked up): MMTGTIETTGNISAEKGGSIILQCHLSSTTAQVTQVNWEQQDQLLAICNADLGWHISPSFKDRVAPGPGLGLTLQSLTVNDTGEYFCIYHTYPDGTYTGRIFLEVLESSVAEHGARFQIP
- assayMethodText: SPR Carterra, average
reportedEndpoint: pKd
On this scale, pKd is minus log10 of a concentration expressed in M (mol/L).

These recorded examples may help you get a feel for the data.
binder	quantitativeReadout
TIGIT-SC127 (Fc fusion, VHH-Fc fusion in assay) VHH: EVQLVESGGGLVQPGGSLRLSCAASGSIFSGNAMGWFRQAPGKERELVAAISNSASSTVYADSVKGRFTISADNSKNTAYLQMNSLKPEDTAVYYCARDWNLFDYWGQGTLVTVSS	7.48
TIGIT-SC12 (Fc fusion, VHH-Fc fusion in assay) VHH: EVQLVESGGGLVQPGGSLRLSCAASGRTFSAYGMGWFRQAPGKEREFVAAITPSSRTTYYADSVKGRFTISADNSKNTAYLQMNSLKPEDTAVYYCAKDNWGEWLMPWWGQGTLVTVSS	7.64

Q: I am curious: what pKd value has been reported for TIGIT-SC113 (Fc fusion, VHH-Fc fusion in assay) VHH: EVQLVESGGGLVQPGGSLRLSCAASGFTLNDYAMGWFRQAPGKERELVAWIARYDGSTLYADSVKGRFTISADNSKNTAYLQMNSLKPEDTAVYYCTWGDGYNLGAFDIWGQGTLVTVSS ?
Ans: 8.73
